Test system: 454973-116-R2-J3-PDC complex spheroid viability;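 note: spheroids exposed to drugs for seven days before measurement; percent viability relative to DMSO vehicle control wells taken as 100%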
PROTOCOL: Anticancer human tumor 454973-116-R2-J3-PDC patient-derived pancreatic carcinoma cell line growth inhibition [POLQ]
CONDITIONS USED: second compound 10 µM; first compound 1 µM; active compounds read low
Reported values of viability, T/C for individual entries
VALUE TYPE: viability, T/C (%)

- COc1cccc(OCCCN)c1-c1cc(Nc2cnc(C#N)cn2)n[nH]1 + Cc1cccc(N(C)C(=O)C2C(O)CCN2c2nc(C)cc(C(F)(F)F)c2C#N)c1: 5.41
- COc1cccc2c1C(=O)c1c(O)c3c(c(O)c1C2=O)CC(O)(C(=O)CO)CC3OC1CC(N)C(O)C(C)O1 (stereo unspecified) + COC1C(OC(N)=O)C(O)C(Oc2ccc3c(O)c(NC(=O)c4ccc(O)c(CC=C(C)C)c4)c(=O)oc3c2C)OC1(C)C: 10
- CC(C)n1c(=O)n(C)c2cnc3cc(F)c(-c4ccc(OCCCN5CCCCC5)nc4)cc3c21 + COC1C(OC(N)=O)C(O)C(Oc2ccc3c(O)c(NC(=O)c4ccc(O)c(CC=C(C)C)c4)c(=O)oc3c2C)OC1(C)C: 107
- C=CC(=O)N1CCN(c2nc(=O)n(-c3c(C)ccnc3C(C)C)c3nc(-c4c(O)cccc4F)c(F)cc23)C(C)C1 (stereo unspecified) + Cc1cccc(N(C)C(=O)C2C(O)CCN2c2nc(C)cc(C(F)(F)F)c2C#N)c1: 113
- CCCS(=O)(=O)Nc1ccc(F)c(C(=O)c2c[nH]c3ncc(-c4ccc(Cl)cc4)cc23)c1F + Nc1ccc(C#CCN(C(=O)Cc2ncc(C(F)(F)F)cc2C(F)(F)F)c2ccc(F)cc2)nn1: 116
- Nc1ccn(C2OC(CO)C(O)C2(F)F)c(=O)n1 (stereo unspecified) + Cc1cccc(N(C)C(=O)C2C(O)CCN2c2nc(C)cc(C(F)(F)F)c2C#N)c1: 14.2
- COc1cc2cc(C(=O)CCC(=O)O)sc2cc1OC + Cc1cccc(N(C)C(=O)C2C(O)CCN2c2nc(C)cc(C(F)(F)F)c2C#N)c1: 111
- O=c1[nH]cc(F)c(=O)[nH]1 + Cc1cccc(N(C)C(=O)C2C(O)CCN2c2nc(C)cc(C(F)(F)F)c2C#N)c1: 92.2
- CNCc1ccc(-c2[nH]c3cc(F)cc4c3c2CCNC4=O)cc1 + COC1C(OC(N)=O)C(O)C(Oc2ccc3c(O)c(NC(=O)c4ccc(O)c(CC=C(C)C)c4)c(=O)oc3c2C)OC1(C)C: 98.3
- CCc1cc2c(N3CCc4c(cc(Cn5ccnc5)cc4-c4cn(C)nc4C(F)(F)F)C3=O)ccnc2c(OC)n1 + Cc1cccc(N(C)C(=O)C2C(O)CCN2c2nc(C)cc(C(F)(F)F)c2C#N)c1: 74
- C=CC(=O)N1CCN(c2nc(=O)n(-c3c(C)ccnc3C(C)C)c3nc(-c4c(O)cccc4F)c(F)cc23)C(C)C1 (stereo unspecified) + COC1C(OC(N)=O)C(O)C(Oc2ccc3c(O)c(NC(=O)c4ccc(O)c(CC=C(C)C)c4)c(=O)oc3c2C)OC1(C)C: 105
- CC1COCCN1c1cc(C2(S(C)(=N)=O)CC2)nc(-c2ccnc3[nH]ccc23)n1 (stereo unspecified) + COC1C(OC(N)=O)C(O)C(Oc2ccc3c(O)c(NC(=O)c4ccc(O)c(CC=C(C)C)c4)c(=O)oc3c2C)OC1(C)C: 93.9
- C=CCn1c(=O)c2cnc(Nc3ccc(N4CCN(C)CC4)cc3)nc2n1-c1cccc(C(C)(C)O)n1 + COC1C(OC(N)=O)C(O)C(Oc2ccc3c(O)c(NC(=O)c4ccc(O)c(CC=C(C)C)c4)c(=O)oc3c2C)OC1(C)C: 18.8
- COc1cc2cc(C(=O)CCC(=O)O)sc2cc1OC + Nc1ccc(C#CCN(C(=O)Cc2ncc(C(F)(F)F)cc2C(F)(F)F)c2ccc(F)cc2)nn1: 117
- CC1COCCN1c1cc(C2(O)CC3CCC(C2)O3)c2cnn(-c3ccn[nH]3)c2n1 (stereo unspecified) + Nc1ccc(C#CCN(C(=O)Cc2ncc(C(F)(F)F)cc2C(F)(F)F)c2ccc(F)cc2)nn1: 9.37
- CCc1c2c(nc3ccc(O)cc13)-c1cc3c(c(=O)n1C2)COC(=O)[C@]3(O)CC + COC1C(OC(N)=O)C(O)C(Oc2ccc3c(O)c(NC(=O)c4ccc(O)c(CC=C(C)C)c4)c(=O)oc3c2C)OC1(C)C: 1.53
- CCc1cc2c(N3CCc4c(cc(Cn5ccnc5)cc4-c4cn(C)nc4C(F)(F)F)C3=O)cc(C)nc2c(OC)n1 + Cc1cccc(N(C)C(=O)C2C(O)CCN2c2nc(C)cc(C(F)(F)F)c2C#N)c1: 71.5
- CNCc1ccc(-c2[nH]c3cc(F)cc4c3c2CCNC4=O)cc1 + Nc1ccc(C#CCN(C(=O)Cc2ncc(C(F)(F)F)cc2C(F)(F)F)c2ccc(F)cc2)nn1: 117
- CC1COCCN1c1cc(-c2ccnn2C)c2ccnc(-c3ccn[nH]3)c2n1 (stereo unspecified) + Cc1cccc(N(C)C(=O)C2C(O)CCN2c2nc(C)cc(C(F)(F)F)c2C#N)c1: 19.5
- COc1cccc2c1C(=O)c1c(O)c3c(c(O)c1C2=O)CC(O)(C(=O)CO)CC3OC1CC(N)C(O)C(C)O1 (stereo unspecified) + Nc1ccc(C#CCN(C(=O)Cc2ncc(C(F)(F)F)cc2C(F)(F)F)c2ccc(F)cc2)nn1: 3.36
- CC1COCCN1c1cc(C2(O)CC3CCC(C2)O3)c2cnn(-c3ccn[nH]3)c2n1 (stereo unspecified) + COC1C(OC(N)=O)C(O)C(Oc2ccc3c(O)c(NC(=O)c4ccc(O)c(CC=C(C)C)c4)c(=O)oc3c2C)OC1(C)C: 21.5
